System: P. vulgatus RND KO;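 note: active when median AUC fell below 0.1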
protocol-details: growth AUC normalised to DMSO control (median) (fraction of control); higher = less growth inhibition, active = hit call of the paper
assay-conditions: 20 µM
Structures can show the parent of a compound that is named as a salt.
The categories you may choose from are active, inactive

**Query** Could you please tell me the result logged for O=C(O)Cc1ccc(-c2ccccc2)cc1 [Felbinac] in this assay?
**Result** inactive

**Query** Please state the recorded outcome for this molecule: CCCCc1ncc(/C=C(\Cc2cccs2)C(=O)O)n1Cc1ccc(C(=O)O)cc1 [Eprosartan mesylate]
**Result** inactive

**Query** Status in this test for Nc1ccn([C@@H]2O[C@H](CO)[C@@H](O)C2(F)F)c(=O)n1 [Gemcitabine] ?
**Result** inactive

**Query** In this assay, the call recorded for CN(C)C(=N)NC(=N)N [Metformin hydrochloride] was what?
**Result** inactive

**Query** So what was the verdict on CS(=O)(=O)c1ccc(C2=C(c3ccccc3)C(=O)OC2)cc1 [Rofecoxib] in this test?
**Result** inactive

**Query** Query: recorded result category for NS(=O)(=O)c1cc(C2(O)NC(=O)c3ccccc32)ccc1Cl (configuration not stated) [Chlorthalidone] in this test
**Result** inactive

**Query** I would be grateful if you could indicate the recorded call for CCc1ccc(C(=O)C(C)CN2CCCCC2)cc1 (configuration not stated) [Eperisone Hydrochloride] .
**Result** inactive

**Query** For this molecule, state the assay outcome: N=C(N)c1ccc(OCCCCCOc2ccc(C(=N)N)cc2)cc1 [Pentamidine isethionate]
**Result** inactive

New cases:
**Query** Tell me the assay call for CCCN(CCC)S(=O)(=O)c1ccc(C(=O)O)cc1 [Probenecid] please.
**Result** inactive

**Query** What call does the record list for C[C@@H]1C[C@H]2[C@@H]3C[C@H](F)C4=CC(=O)C=C[C@]4(C)[C@@]3(Cl)[C@@H](O)C[C@]2(C)[C@H]1C(=O)COC(=O)C(C)(C)C [Clocortolone pivalate] ?
**Result** active

**Query** Entry COCCCOc1ccnc(C[S+]([O-])c2nc3ccccc3[nH]2)c1C (configuration not stated) [Rabeprazole sodium salt] : call = ?
**Result** inactive

**Query** Any idea what this test logged for CCNC(=O)CCC/C=C\C[C@@H]1[C@@H](/C=C/[C@@H](O)CCc2ccccc2)[C@H](O)C[C@@H]1O [Bimatoprost] ?
**Result** inactive

**Query** Recorded test outcome, item CC(=O)NC[C@H]1CN(c2ccc(N3CCOCC3)c(F)c2)C(=O)O1 [Linezolid]
**Result** active

====

Tested on: P. vulgatus RND KO;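 note: active when median AUC fell below 0.1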
protocol-details: growth AUC normalised to DMSO control (median) (fraction of control); higher = less growth inhibition, active = hit call of the paper
assay-conditions: 20 µM
Where a name gives a salt, the structure may show the parent alone.
Listed compounds paired with reported growth AUC normalised to DMSO control
Just the number, please, no unit attached.

# count of solved cases: 4
**Query** Answer with the recorded growth AUC normalised to DMSO control for the compound listed here: CC(C)NCC(O)COc1ccc(CCOCC2CC2)cc1 (stereo not drawn) [Betaxolol hydrochloride]
**Result** 1.01

**Query** State, in one line, measured growth AUC normalised to DMSO control of N[C@@H](Cc1cc(I)c(Oc2ccc(O)c(I)c2)c(I)c1)C(=O)O [Liothyronine]
**Result** 0.987

**Query** Please report the measured growth AUC normalised to DMSO control for CCN(CCCCOC(=O)c1ccc(OC)c(OC)c1)C(C)Cc1ccc(OC)cc1 (stereo not drawn) [Mebeverine hydrochloride]
**Result** 1.01

**Query** Identify measured growth AUC normalised to DMSO control associated with CC(C(=O)O)c1ccc2c(c1)Cc1cccnc1O2 (stereo not drawn) [Pranoprofen]
**Result** 1.04

***
**Query** Tell me its growth AUC normalised to DMSO control given O=C(O)C[C@H](O)C[C@H](O)/C=C/c1c(C2CC2)nc2ccccc2c1-c1ccc(F)cc1 [Pitavastatin calcium] as the entry.
**Result** 0.983

**Query** Given the compound CSc1nc2cc(Cl)c(Oc3cccc(Cl)c3Cl)cc2[nH]1 [Triclabendazole] , write its reported growth AUC normalised to DMSO control.
**Result** 0.0625

**Query** Identify measured growth AUC normalised to DMSO control associated with NC(=O)[C@@H]1CCCN1C(=O)[C@H](Cc1c[nH]cn1)NC(=O)[C@@H]1CCC(=O)N1 [Thyrotropin-Releasing Hormone]
**Result** 1.05

**Query** Respond only with growth AUC normalised to DMSO control recorded for C#C[C@]1(O)CC[C@H]2[C@@H]3CCC4=Cc5oncc5C[C@]4(C)[C@H]3CC[C@@]21C [Danazol]
**Result** 0.982

====

System: Salmonella enterica typhimurium
protocol-details: growth AUC normalised to DMSO control (fraction of control); higher = less growth inhibition, active = hit call of the paper
assay-conditions: 20 µM
Where a name gives a salt, the structure may show the parent alone.
In this section, each of the compounds is paired with its reported growth AUC normalised to DMSO control.
Reply with just the number.

**Query** Complete the entry with growth AUC normalised to DMSO control for CCN1CCC[C@H]1CNC(=O)c1c(OC)ccc(Br)c1OC [Remoxipride hydrochloride]
**Result** 1.01

**Query** Tell me growth AUC normalised to DMSO control reported for Cc1ccc(-c2ncc(Cl)cc2-c2ccc(S(C)(=O)=O)cc2)cn1 [Etoricoxib]
**Result** 1.01

**Query** Determine its reported growth AUC normalised to DMSO control: Clc1ccc(COC(Cn2ccnc2)c2ccc(Cl)cc2Cl)cc1 (stereo unspecified) [Econazole nitrate]
**Result** 0.977

**Query** Return growth AUC normalised to DMSO control (reported value) for this compound: COc1ccc(CC2c3cc(OC)c(OC)cc3CC[N+]2(C)CCC(=O)OCCCCCOC(=O)CC[N+]2(C)CCc3cc(OC)c(OC)cc3C2Cc2ccc(OC)c(OC)c2)cc1OC (stereo unspecified) [Atracurium besylate]
**Result** 1

**Query** Report measured growth AUC normalised to DMSO control; entry is C[C@@H]1C[C@H]2[C@@H]3CCC4=CC(=O)C=C[C@]4(C)[C@@]3(Cl)[C@@H](O)C[C@]2(C)[C@@]1(OC(=O)c1ccco1)C(=O)CCl [Mometasone furoate]
**Result** 1.02

# context switch: different compound, same growth AUC normalised to DMSO control
**Query** In one line, give reported growth AUC normalised to DMSO control of the entry CCN1CCN(C(=O)N[C@@H](C(=O)N[C@@H]2C(=O)N3C(C(=O)O)=C(CSc4nnnn4C)CS[C@H]23)c2ccc(O)cc2)C(=O)C1=O [Cefoperazone dihydrate] .
**Result** 0.0254

====

System: Shigella flexneri
protocol-details: growth AUC normalised to DMSO control (fraction of control); higher = less growth inhibition, active = hit call of the paper
assay-conditions: 20 µM
Structures can show the parent of a compound that is named as a salt.
experimental-readout: growth AUC normalised to DMSO control

Take a look at these entries with their results.
**Query** Hello, please tell me recorded growth AUC normalised to DMSO control for this one: Nc1ccc(S(=O)(=O)Nc2nccs2)cc1
**Result** 1 (inactive)

**Query** Complete the entry with growth AUC normalised to DMSO control for CN1CCN(c2c(F)cc3c(=O)c(C(=O)O)cn(CCF)c3c2F)CC1
**Result** 0.0225 (active)

**Query** Identify the reported growth AUC normalised to DMSO control for the following entry. CNc1ncnc2c1ncn2[C@@H]1O[C@H](CO)[C@@H](O)[C@H]1O
**Result** 1.03 (inactive)

**Query** Please look at this compound and report its growth AUC normalised to DMSO control: CC[N+](C)(CC)CCOC(=O)C1c2ccccc2Oc2ccccc21 [Methantheline bromide]
**Result** 1.01 (inactive)

**Query** Please give the documented growth AUC normalised to DMSO control of CCN1CCN(C(=O)N[C@@H](C(=O)N[C@@H]2C(=O)N3C(C(=O)O)=C(CSc4nnnn4C)CS[C@H]23)c2ccc(O)cc2)C(=O)C1=O [Cefoperazone dihydrate]
**Result** 0.0208 (active)

**Query** Please indicate growth AUC normalised to DMSO control recorded for Cc1ccccc1C(OCCN(C)C)c1ccccc1 (configuration not stated) [Orphenadrine hydrochloride]
**Result** 1.02 (inactive)

**Query** Tell me growth AUC normalised to DMSO control reported for CCCCCCCCCCCCCCCC[N+](C)(C)CCN(Cc1ccc(OC)cc1)c1ncccn1 [Thonzonium bromide]
**Result** 0.979 (inactive)

**Query** Note growth AUC normalised to DMSO control for the compound shown: CC(C)NCC(O)c1ccc(NS(C)(=O)=O)cc1 (configuration not stated) [Sotalol hydrochloride]
**Result** 1.06 (inactive)

**Query** Determine from records and report growth AUC normalised to DMSO control for C[C@]12CCC(=O)C=C1C=C[C@@H]1[C@@H]2CC[C@@]2(C)[C@H]1CC[C@@]21CCC(=O)O1
**Result** 1.06 (inactive)

**Query** Report growth AUC normalised to DMSO control for CCN(CC)CCc1nc(-c2ccccc2)no1 [Oxolamine citrate salt]
**Result** 1.01 (inactive)

We next turn to a different compound, shown below.
**Query** Read off the recorded growth AUC normalised to DMSO control for O=C(O)Cc1sc(-c2ccccc2)nc1-c1ccc(Cl)cc1
**Result** 1.03 (inactive)
